Experiment: Haemolytic activity assay
Format: cell-based
Conditions: human red blood cells (RBCs) from healthy donors, 60 µM, 37°C, read-out: Percentage of haemolysis
Hi there, I'd appreciate the recorded hemolysis at 1 h, 60 µM for every entry that follows.

Q: Identify the reported hemolysis at 1 h, 60 µM for the following entry. COc1ccc(C(=O)C(C)O)cc1OC (stereo not drawn) [4c]
Result: 1.77%

Q: Identify the reported hemolysis at 1 h, 60 µM for the following entry. CC(O)C(O)c1ccc2c(c1)OCO2 (stereo not drawn) [1b, 1-(1,3-benzodioxol-5-yl)propane-1,2-diol]
Result: 1.88%

Q: Identify the reported hemolysis at 1 h, 60 µM for the following entry. CC(O)C(O)c1ccccc1 (stereo not drawn) [2b, 1-phenylpropane-1,2-diol]
Result: 1.32%

Q: Identify the reported hemolysis at 1 h, 60 µM for the following entry. COc1ccc(C(O)C(C)O)cc1OC (stereo not drawn) [4b, 1-(3,4-dimethoxyphenyl)propane-1,2-diol]
Result: 1.2%

Q: Identify the reported hemolysis at 1 h, 60 µM for the following entry. COc1ccc(C(=O)C(C)O)cc1 (stereo not drawn) [3c]
Result: 2.33%

Q: Identify the reported hemolysis at 1 h, 60 µM for the following entry. C/C=C/c1ccc(OC)cc1 [3a, anethole]
Result: 2.54%

Q: Identify the reported hemolysis at 1 h, 60 µM for the following entry. CC(O)C(=O)c1ccccc1 (stereo not drawn) [2c, 2-hydroxy-1-phenylpropan-1-one]
Result: 1.74%

Q: Identify the reported hemolysis at 1 h, 60 µM for the following entry. CC(O)C(=O)c1ccc2c(c1)OCO2 (stereo not drawn) [1c]
Result: 1.85%

Q: Identify the reported hemolysis at 1 h, 60 µM for the following entry. C/C=C/c1ccc2c(c1)OCO2 [1a, isosafrole]
Result: 2.4%

Q: Identify the reported hemolysis at 1 h, 60 µM for the following entry. COc1cc(C(O)C(C)O)ccc1O (stereo not drawn) [5b]
Result: 1.62%

Q: Identify the reported hemolysis at 1 h, 60 µM for the following entry. COc1ccc(C(O)C(C)O)cc1 (stereo not drawn) [3b, 1-(4-methoxyphenyl)propane-1,2-diol]
Result: 2.29%

Q: Identify the reported hemolysis at 1 h, 60 µM for the following entry. CC=Cc1ccc(OC)c(OC)c1 [4a, 1,2-dimethoxy-4-prop-1-en-1-yl benzene]
Result: 1.58%
